Assay: Human HepG2 cell viability assay in 384 well format
Type: toxicity, cell-based
Parameters: dose 125 nL, time 70.5 hour; concentration not given beside the values
Settings: HepG2 cells, read-out: Inhibition

{"COMPOUND": "CCC(CNC(=O)Cc1c(C)noc1C)N1CCCC1 (stereo not drawn)", "QUANTITY UNIT": "%", "cytotoxicity at 70.5 h": -6.77}
{"COMPOUND": "c1cnc(-c2nc(CN3CCCC3Cn3cncn3)cs2)nc1 (stereo not drawn)", "QUANTITY UNIT": "%", "cytotoxicity at 70.5 h": -5.35}
{"COMPOUND": "Cc1cnc(N2CCOC3(CCCN(CC(=O)N(C)C)C3)C2)nc1 (stereo not drawn)", "QUANTITY UNIT": "%", "cytotoxicity at 70.5 h": -3.5}
